For each of the compounds below, state its melting point.

GET /value?item= CC1(NS(=O)(=O)c2ccc(-c3c(C#N)c4cc(C(F)(F)F)cnc4n3C3CCC3)nc2)CC1 [Cpd 398] &field=melting point returns 172 to 175 °C

GET /value?item= Cc1cnc2c(c1)c(C#N)c(-c1ccc(S(=O)(=O)NC(C)(C)C(F)(F)F)cc1)n2C1CCC1 [Cpd 79] &field=melting point returns 180 to 181 °C

GET /value?item= C[C@H](NS(=O)(=O)c1ccc(-c2c(C#N)c3cc(Cl)cnc3n2-c2nccs2)nc1)C(F)(F)F [Cpd 429] &field=melting point returns 181 to 183 °C

GET /value?item= CC(C)(C)NS(=O)(=O)c1ccc(-c2c(C#N)c3cc(Cl)cnc3n2-c2nccs2)nc1 [Cpd 515] &field=melting point returns 216 to 218 °C

GET /value?item= Cc1cnc2c(C#N)c(-c3ccc(S(=O)(=O)NC(C)(C)C(F)(F)F)cn3)n(C3CCC3)c2c1 [Cpd 209] &field=melting point returns 238 to 240 °C

GET /value?item= C[C@H](NS(=O)(=O)c1ccc(-c2c(C#N)c3ccc(OC(F)F)nc3n2C2CCC2)nc1)C(F)(F)F [Cpd 54] &field=melting point returns 176 to 177 °C

GET /value?item= C[C@H](NS(=O)(=O)c1ccc(-c2c(C#N)c3cc(OC(F)F)cnc3n2C2CCC2)cc1)C(F)(F)F [Cpd 198] &field=melting point returns 155 to 156 °C

GET /value?item= Cc1cnc2c(c1)c(C#N)c(-c1cccc(NS(=O)(=O)C(C)C)c1)n2C1CCC1 [Cpd 299] &field=melting point returns 166 to 173 °C

GET /value?item= N#Cc1c(-c2ccc(S(=O)(=O)NC3CCC3)cn2)n(C2CCC2)c2ncc(C(F)(F)F)cc12 [Cpd 302] &field=melting point returns 197 to 199 °C

GET /value?item= Cc1cnc2c(C#N)c(-c3ccc(S(=O)(=O)N[C@H](C)C(F)(F)F)cn3)n(C3CCC3)c2c1 [Cpd 207] &field=melting point returns 207 to 209 °C

GET /value?item= Cc1cnc2c(c1)c(C#N)c(-c1ccc(S(=O)(=O)NC(C)(C)C)cn1)n2-c1ccccn1 [Cpd 525] &field=melting point returns 214.2 to 215.4 °C

GET /value?item= C[C@H](NS(=O)(=O)c1ccc(-c2c(C#N)c3cc(C4CC4)cnc3n2C2CCCC2)nc1)C(F)(F)F [Cpd 250] &field=melting point returns 157 to 167 °C

GET /value?item= C[C@H](NS(=O)(=O)c1ccc(-c2c(C#N)c3cc(N(C)C)cnc3n2C2CCC2)cc1)C(F)(F)F [Cpd 500] &field=melting point returns 198 to 200 °C

GET /value?item= C[C@H](NS(=O)(=O)c1ccc(-c2c(C#N)c3cc(OC(F)F)cnc3n2C2CCC2)nc1)C(F)(F)F [Cpd 122] &field=melting point returns 155 to 156 °C

GET /value?item= CCCOc1cnc2c(c1)c(C#N)c(-c1ccc(S(=O)(=O)N[C@@H](C)C(F)(F)F)cn1)n2C1CCC1 [Cpd 204] &field=melting point returns 170 to 171 °C

GET /value?item= CC1(NS(=O)(=O)c2ccc(-c3c(C#N)c4cc(C#N)cnc4n3C3CCC3)nc2)CC1 [Cpd 113] &field=melting point returns 198 to 200 °C

GET /value?item= C[C@H](NS(=O)(=O)c1ccc(-c2c(C#N)c3cc(Cl)cnc3n2C2CCC2)cc1)C(F)(F)F [Cpd 61] &field=melting point returns 220 to 222 °C

GET /value?item= Cc1cc2c(C#N)c(-c3ccc(S(=O)(=O)N[C@@H](C)C(F)(F)F)cc3)n(C3CCC3)c2cn1 [Cpd 167] &field=melting point returns 188 to 191 °C

GET /value?item= C[C@H](NS(=O)(=O)c1ccc(-c2c(C#N)c3cc(Cl)ncc3n2C2CCC2)nc1)C(F)(F)F [Cpd 67] &field=melting point returns 180 to 183 °C

GET /value?item= CC(C)(NS(=O)(=O)c1ccc(-c2c(C(N)=O)c3cc(C(F)(F)F)cnc3n2C2CCCCC2)nc1)C(F)(F)F [Cpd 438] &field=melting point returns 250 to 252 °C

GET /value?item= N#Cc1c(-c2ncc(S(=O)(=O)NC(CF)CF)cn2)n(C2CCC2)c2ncc(C3CC3)cc12 [Cpd 132] &field=melting point returns 189 to 197 °C

GET /value?item= Cc1cnc2c(c1)c(C#N)c(-c1ccc(NS(=O)(=O)C(C)C)cc1)n2C1CCC1 [Cpd 267] &field=melting point returns 155 to 164 °C

GET /value?item= CC(C)(NS(=O)(=O)c1ccc(-c2c(C(N)=O)c3cccnc3n2C2CCC2)cc1)C(F)(F)F [Cpd 388] &field=melting point returns 240 to 242 °C

GET /value?item= C[C@@H](NS(=O)(=O)c1ccc(-c2c(C#N)c3cccnc3n2C2CCC2)nc1)C(F)(F)F [Cpd 35] &field=melting point returns 184 to 186 °C

GET /value?item= C[C@H](NS(=O)(=O)c1cnc(-c2c(C#N)c3cc(C(F)F)cnc3n2C2CCC2)nc1)C(F)(F)F [Cpd 454] &field=melting point returns 155 to 156 °C

GET /value?item= Cc1cnc2c(C#N)c(-c3ccc(S(=O)(=O)N[C@@H](C)C(F)(F)F)cn3)n(-c3nccs3)c2c1 [Cpd 477] &field=melting point returns 230 to 232 °C

GET /value?item= CC(C)(NS(=O)(=O)c1ccc(-c2c(C#N)c3cc(OC(F)F)cnc3n2C2CCC2)nc1)C(F)(F)F [Cpd 201] &field=melting point returns 168 to 169 °C

GET /value?item= Cc1cnc2c(c1)c(C#N)c(-c1ccc(S(=O)(=O)N[C@@H](C)C(F)(F)F)cn1)n2-c1cnccn1 [Cpd 349] &field=melting point returns 220 to 222 °C

GET /value?item= CC(C)NS(=O)(=O)c1ccc(-c2c(C#N)c3cc(Cl)cnc3n2CC2CC2)cc1 [Cpd 1] &field=melting point returns 113 to 116 °C

GET /value?item= CC(C)(NS(=O)(=O)c1ccc(-c2c(C(N)=O)c3cc(C(F)(F)F)cnc3n2C2CCC2)cc1)C(F)(F)F [Cpd 401] &field=melting point returns 239 to 241 °C

GET /value?item= C[C@H](NS(=O)(=O)c1ccc(-c2c(C#N)c3cc(C#N)cnc3n2C2CCC2)nc1)C(F)(F)F [Cpd 108] &field=melting point returns 203 to 204 °C

###

For each of the molecules below, state its melting point.

GET /value?item= C[C@H](NS(=O)(=O)c1ccc(-c2c(C#N)c3cc(C(F)F)cnc3n2C2CCC2)nc1)C1CC1 &field=melting point returns 164 to 165 °C

GET /value?item= [2H]C(C)(C)NS(=O)(=O)c1ccc(-c2c(C#N)c3cc(C(F)(F)F)cnc3n2C2CCC2)nc1 &field=melting point returns 191 to 193 °C

GET /value?item= CC(C)(C)S(=O)(=O)Nc1ccc(-c2c(C#N)c3cc(C(F)(F)F)cnc3n2C2CCCCC2)cc1 &field=melting point returns 245 to 247 °C

GET /value?item= CCC(NS(=O)(=O)c1ccc(-c2c(C#N)c3cc(OC)cnc3n2C2CCC2)nc1)C(F)(F)F (stereo not shown) &field=melting point returns 185 to 190 °C

GET /value?item= Cc1ncc2c(C#N)c(-c3ccc(S(=O)(=O)N[C@@H](C)C(F)(F)F)cn3)n(C3CCCC3)c2n1 &field=melting point returns 212 to 215 °C

GET /value?item= C[C@@H](NS(=O)(=O)c1ccc(-c2c(C#N)c3cc(C4CC4)cnc3n2C2CCC2)cc1)C(F)(F)F &field=melting point returns 190 to 195 °C

GET /value?item= C[C@H](NS(=O)(=O)c1ccc(-c2c(C(N)=O)c3cc(C(F)(F)F)cnc3n2C2CCCCC2)cc1)C(F)(F)F &field=melting point returns 291 to 293 °C

###

For each of the compounds below, state its melting point.

GET /value?item= COc1cnc2c(c1)c(C#N)c(-c1ccc(S(=O)(=O)NC(CF)CF)cn1)n2C1CCC1 &field=melting point returns 161 to 163 °C

GET /value?item= C[C@@H](NS(=O)(=O)c1ccc(-c2c(C#N)c3cc(C(F)(F)F)cnc3n2C2CCCC2)nc1)C(F)(F)F &field=melting point returns 208 to 210 °C

GET /value?item= Cc1cc2c(C#N)c(-c3ccc(S(=O)(=O)NC4(C)CC4)cn3)n(C3CCC3)c2cn1 &field=melting point returns 185 to 190 °C

GET /value?item= C[C@@H](NS(=O)(=O)c1ccc(-c2c(C#N)c3cc(OC(F)F)cnc3n2C2CCC2)cc1)C(F)(F)F &field=melting point returns 199 to 200 °C

GET /value?item= C[C@H](NS(=O)(=O)c1ccc(-c2c(C#N)c3cc(Cl)cnc3n2-c2ncccn2)nc1)C(F)(F)F &field=melting point returns 223 to 225 °C

GET /value?item= Cc1cnc2c(c1)c(C#N)c(-c1ccc(S(=O)(=O)N[C@@H](C)C(F)(F)F)cn1)n2-c1cc(F)ccc1F &field=melting point returns 232 to 234 °C

GET /value?item= COc1cnc2c(c1)c(C#N)c(-c1ccc(S(=O)(=O)NC3CCC3)cn1)n2C1CCC1 &field=melting point returns 203 to 207 °C

GET /value?item= Cc1nc2c(cc1C(F)(F)F)c(C#N)c(-c1ccc(S(=O)(=O)N[C@@H](C)C(F)(F)F)cn1)n2C1CCC1 &field=melting point returns 201 to 203 °C

GET /value?item= C[C@H](NS(=O)(=O)c1ccc(-c2c(C(N)=O)c3cc(C(F)(F)F)cnc3n2C2CCCC2)nc1)C(F)(F)F &field=melting point returns 261 to 263 °C

GET /value?item= C[C@H](NS(=O)(=O)c1ccc(-c2c(C#N)c3cc(N4CCCC4)cnc3n2C2CCC2)nc1)C(F)(F)F &field=melting point returns 207 to 209 °C

GET /value?item= N#Cc1c(-c2ccc(S(=O)(=O)NC3CCC3)cn2)n(C2CCC2)c2ncc(C3CC3)cc12 &field=melting point returns 189 to 197 °C

GET /value?item= N#Cc1cnc2c(c1)c(C#N)c(-c1ccc(S(=O)(=O)NC3(C(F)(F)F)CC3)cn1)n2C1CCC1 &field=melting point returns 207 to 208 °C

GET /value?item= Cc1cnc2c(c1)c(C#N)c(-c1ccc(S(=O)(=O)N[C@@H](C)C(F)(F)F)cn1)n2-c1ccccc1 &field=melting point returns 220 to 222 °C

GET /value?item= C[C@@H](NS(=O)(=O)c1ccc(-c2c(C(N)=O)c3cc(C(F)(F)F)cnc3n2C2CCCCC2)cc1)C(F)(F)F &field=melting point returns 285 to 287 °C

GET /value?item= Cc1ccc2c(C#N)c(-c3ncc(S(=O)(=O)NC4(C)CC4)cn3)n(C3CCC3)c2n1 &field=melting point returns 224 to 232 °C

Origin of measurements: patent US9593108B2
